Assignment: determine reported pIC50 for the given compounds.
Conceptually, pIC50 converts a concentration in mol/L into minus its log10.

Q) # query: pIC50 | item CCNC(=O)C(=O)C(CC(C)C)NC(=O)C(CCCN/C(N)=N/[N+](=O)[O-])NC(=O)C(CCCCCCCCC#N)C1CCCC1 (stereo not shown) | system: MCP chymotrypsin-like activity (Homo sapiens, UniProt P28074)
A) 7.68

Q) # query: pIC50 | item CC(C)C[C@H](NC(=O)[C@H](CCCNC(N)=N[N+](=O)[O-])NC(=O)C(CCCCCCCCC#N)C1CCCC1)B(O)O (stereo partly shown) | system: MCP chymotrypsin-like activity (Homo sapiens, UniProt P28074)
A) 8.30

Q) # query: pIC50 | item CC(C)C[C@@H](C=O)NC(=O)[C@@H](CCCNC(=N)N[N+](=O)[O-])NC(=O)C(CCCCCCCCN1C(=O)c2ccccc2C1=O)C1CCCC1 (stereo partly shown) | system: MCP chymotrypsin-like activity (Homo sapiens, UniProt P28074)
A) 8.70

Q) # query: pIC50 | item COC(=O)CCCCCCCCC(C(=O)N[C@@H](CCCNC(=N)NS(=O)(=O)c1ccc2c(c1)CCC(C)(C)O2)C(=O)N[C@H](C=O)CC(C)C)C1CCCC1 (stereo partly shown) | system: MCP chymotrypsin-like activity (Homo sapiens, UniProt P28074)
A) 8.00
